- System: RIN5F (Rat Insulinoma) cells
- ASSAY METHOD TEXT: In vitro glucose-dependent insulin secretion (RIN5F cell assay screening protocol)
- Format: cell-based
- CONDITION PARAMETERS: 10 nM test compd., 16.7 mM glucose load
Non-standard residues stand in square brackets, D forms with d. Residues, ends and D or L forms follow the SMILES beside them. ξ: configuration not given here. ξBip(2'-Et-4'-OMe) = CCc1cc(OC)ccc1-c1ccc(CC(N)C(=O)O)cc1; ξhhPhe = NC(CCCc1ccccc1)C(=O)O; Ac5c = NC1(C(=O)O)CCCC1
READOUT KIND: Insulin secretion (pg/µg/h)
Field: numeric (pg/µg/h). Do not append units.

Example entries begin here.
COMPOUND	READOUT KIND	UNIT	ENDPOINT VALUE
CCc1cc(OC)ccc1-c1ccc(CC(NC(=O)[C@H](CC(=O)O)NC(=O)[C@H](CO)NC(=O)[C@@H](NC(=O)C(C)(Cc2ccccc2F)NC(=O)[C@@H](NC(=O)CNC(=O)[C@H](CC(C(F)(F)F)C(F)(F)F)NC(=O)C(C)(C)NC(=O)[C@@H](N)Cc2c[nH]cn2)[C@@H](C)O)[C@@H](C)O)C(=O)NC(CCCc2ccc(Cl)cc2C)C(N)=O)cc1 (single isomer, unassigned)	Insulin secretion	pg/µg/h	27.8
CCc1cc(OC)ccc1-c1ccc(CC(NC(=O)[C@H](CC(=O)O)NC(=O)[C@H](CO)NC(=O)[C@@H](NC(=O)[C@H](Cc2ccccc2)NC(=O)[C@@H](NC(=O)CNC(=O)[C@H](CCC(N)=O)NC(=O)C2(NC(=O)[C@@H](N)Cc3c[nH]cn3)CCCC2)[C@@H](C)O)[C@@H](C)O)C(=O)NC(CCCc2ccccc2)C(N)=O)cc1 (stereo partly drawn) [compound 25] (H-H[Ac5c]QGTFTSD[ξBip(2'-Et-4'-OMe)][ξhhPhe]-NH2)	Insulin secretion	pg/µg/h	35.6

Qu. May I ask what Insulin secretion has been recorded for CCc1cc(OC)ccc1-c1ccc(CC(CNC(CCCc2ccccc2)C(N)=O)NC[C@H](CC(=O)O)NC(=O)[C@H](CO)NC(=O)[C@@H](NC(=O)C(C)(Cc2ccccc2F)NC(=O)[C@@H](NC(=O)CNC(=O)C(CCC#N)NC(=O)C(C)(C)NC(=O)[C@@H](N)Cc2c[nH]cn2)[C@H](C)O)[C@H](C)O)cc1 (single isomer, unassigned) ?
Ans. 36.6

###

// reported % degradation of peptidomimetics in 24 h when incubated with simulated gastric fluid for each item listed
- ASSAY METHOD TEXT: Stability in simulated gastric fluid
- Type: in vitro ADME
- CONDITION PARAMETERS: 2 μM peptidomimetic, simulated gastric fluid pH 1.5, 37° C., 24 h
Field: numeric (%). Do not append units.

Example entries begin here.
MOLECULE	ENDPOINT VALUE
CCc1cc(OC)ccc1-c1ccc(CC(NC(=O)[C@H](CC(=O)O)NC(=O)[C@H](CO)NC(=O)[C@@H](NC(=O)C(C)(Cc2ccccc2)NC(=O)[C@@H](NC(=O)CNC(=O)[C@H](CC(C(F)(F)F)C(F)(F)F)NC(=O)C(C)(C)NC(=O)[C@@H](N)Cc2c[nH]cn2)[C@@H](C)O)[C@@H](C)O)C(=O)NC(CCCc2ccccc2)C(N)=O)cc1 (single isomer, unassigned)	100
CCc1cc(OC)ccc1-c1ccc(CC(C(=O)N(C)C(CCCc2ccccc2F)C(N)=O)N(C)C(=O)[C@H](CC(=O)O)NC(=O)[C@H](CO)NC(=O)[C@@H](NC(=O)C(C)(Cc2ccccc2F)NC(=O)[C@@H](NC(=O)CNC(=O)C(CCC#N)NC(=O)C(C)(C)NC(=O)[C@@H](N)Cc2c[nH]cn2)[C@H](C)O)[C@H](C)O)cc1 (single isomer, unassigned)	14

Qu. May I ask what % degradation of peptidomimetics in 24 h when incubated with simulated gastric fluid has been recorded for CCc1cc(OC)ccc1-c1ccc(CC(NC(=O)[C@H](CC(=O)O)NC(=O)[C@H](CO)NC(=O)[C@@H](NC(=O)[C@H](Cc2ccccc2)NC(=O)[C@@H](NC(=O)CNC(=O)C(CCC#N)NC(=O)C(C)(C)NC(=O)[C@@H](N)Cc2c[nH]cn2)[C@@H](C)O)[C@@H](C)O)C(=O)NC(CCCc2ccc(C(F)(F)F)cc2F)C(N)=O)cc1 (single isomer, unassigned) ?
Ans. 50
